# System: kochia (Bassia scoparia)
# assayRemarks: Test C preemergence, visual plant response rating
# Format: in vivo
# testSettings: Test C, 31 g ai/ha, 0 is no effect, 100 is complete control
# Description: […]
Kindly state Kochia plant response rating (0 to 100 scale) for each of the entries shown.

Query block: Identify Kochia plant response rating (0 to 100 scale) associated with the molecule C#CCO/N=C(/c1cccc(/C=C\Cl)c1)c1c(O)c(C)nn(C)c1=O [Compound 261]
Result block: 0

Query block: Identify Kochia plant response rating (0 to 100 scale) associated with the molecule CO/N=C(/c1cccc(Br)c1)c1c(O)c(C)nn(C)c1=O [Compound 234]
Result block: 0

Query block: Identify Kochia plant response rating (0 to 100 scale) associated with the molecule CC(C)O/N=C(/c1c(O)c(Cl)nn(C)c1=O)c1cc(Br)cc2ccccc12 [Compound 232]
Result block: 0

Query block: Identify Kochia plant response rating (0 to 100 scale) associated with the molecule CCO/N=C(\c1cc(Cl)cc(Cl)c1Cl)c1c(O)c(C)nn(C)c1=O [Compound 186]
Result block: 0

Query block: Identify Kochia plant response rating (0 to 100 scale) associated with the molecule C=CCO/N=C(/c1c(O)c(C)nn(C)c1=O)c1cccc2cc(Cl)ccc12 [Compound 246]
Result block: 0

Query block: Identify Kochia plant response rating (0 to 100 scale) associated with the molecule C#CCON=C(c1cc(Cl)cc(Cl)c1Cl)c1c(O)c(C)nn(C)c1=O [Compound 296]
Result block: 0

Query block: Identify Kochia plant response rating (0 to 100 scale) associated with the molecule C#CCO/N=C(\c1cccc(/C=C\Cl)c1)c1c(O)c(C)nn(C)c1=O [Compound 264]
Result block: 0

Query block: Identify Kochia plant response rating (0 to 100 scale) associated with the molecule CO/N=C(/c1c(O)c(C)nn(C)c1=O)c1cccc2cc(Cl)ccc12 [Compound 301]
Result block: 0

Query block: Identify Kochia plant response rating (0 to 100 scale) associated with the molecule CO/N=C(\c1ccc(Cl)c(Cl)c1)c1c(O)c(C)nn(C)c1=O [Compound 217]
Result block: 0

Query block: Identify Kochia plant response rating (0 to 100 scale) associated with the molecule C#CCON=C(c1ccc(Cl)c(Cl)c1)c1c(O)c(C)nn(C)c1=O [Compound 178]
Result block: 0

Query block: Identify Kochia plant response rating (0 to 100 scale) associated with the molecule Cc1nn(C)c(=O)c(C(=NOC(C)C)c2cc(Cl)cc(Cl)c2Cl)c1O [Compound 295]
Result block: 0

Query block: Identify Kochia plant response rating (0 to 100 scale) associated with the molecule C#CCO/N=C(\c1ccc(F)c(Br)c1)c1c(O)c(C)nn(C)c1=O [Compound 164]
Result block: 0

Query block: Identify Kochia plant response rating (0 to 100 scale) associated with the molecule C#CCO/N=C(/c1cccc(Br)c1)c1c(O)c(C)nn(C)c1=O [Compound 277]
Result block: 0

Query block: Identify Kochia plant response rating (0 to 100 scale) associated with the molecule CC(C)O/N=C(\c1c(O)c(Cl)nn(C)c1=O)c1cc(Br)cc2ccccc12 [Compound 233]
Result block: 0

Query block: Identify Kochia plant response rating (0 to 100 scale) associated with the molecule C#CCO/N=C(\c1c(O)c(C)nn(C)c1=O)c1cc(Cl)cc2ccccc12 [Compound 191]
Result block: 10

Query block: Identify Kochia plant response rating (0 to 100 scale) associated with the molecule Cc1nn(C)c(=O)c(/C(=N/OC(C)C)c2cc(Cl)cc(Cl)c2F)c1O [Compound 179]
Result block: 90

Query block: Identify Kochia plant response rating (0 to 100 scale) associated with the molecule CO/N=C(/c1cc(Cl)cc(OC)c1)c1c(O)c(C)nn(C)c1=O [Compound 165]
Result block: 80

Query block: Identify Kochia plant response rating (0 to 100 scale) associated with the molecule CCO/N=C(/c1c(O)c(C)nn(C)c1=O)c1cccc2cc(Cl)ccc12 [Compound 244]
Result block: 0

Query block: Identify Kochia plant response rating (0 to 100 scale) associated with the molecule CON=C(c1cc(Cl)cc(F)c1Cl)c1c(O)c(C)nn(C)c1=O [Compound 272]
Result block: 10

Query block: Identify Kochia plant response rating (0 to 100 scale) associated with the molecule CO/N=C(/c1c(O)c(Cl)nn(C)c1=O)c1ccc(F)c2ccccc12 [Compound 207]
Result block: 0

Query block: Identify Kochia plant response rating (0 to 100 scale) associated with the molecule C=CCON=C(c1cc(Cl)cc(Cl)c1Cl)c1c(O)c(C)nn(C)c1=O [Compound 294]
Result block: 0

Query block: Identify Kochia plant response rating (0 to 100 scale) associated with the molecule CO/N=C(/c1cccc(/C=C\Cl)c1)c1c(O)c(C)nn(C)c1=O [Compound 287]
Result block: 0

Query block: Identify Kochia plant response rating (0 to 100 scale) associated with the molecule CON=C(c1ccc(F)c(Br)c1)c1c(O)c(C)nn(C)c1=O [Compound 176]
Result block: 0

Query block: Identify Kochia plant response rating (0 to 100 scale) associated with the molecule C#CCON=C(c1cccc(OCC(F)(F)F)c1)c1c(O)c(C)nn(C)c1=O [Compound 197]
Result block: 0

Query block: Identify Kochia plant response rating (0 to 100 scale) associated with the molecule CO/N=C(\c1cccc(/C=C/Cl)c1)c1c(O)c(C)nn(C)c1=O [Compound 286]
Result block: 0

Query block: Identify Kochia plant response rating (0 to 100 scale) associated with the molecule CON=C(c1cccc(OC)c1)c1c(O)c(C)nn(C)c1=O [Compound 204]
Result block: 0
